As shown below, each of these binders has a reported neutralization IC50 value.
# assay target: Env of HIV-1 strain PVO.4 (HIV-1)
# experiment summary: cell-based or functional assay

>  <binder>
γ8κ3 (antibody, V domains shown) VH: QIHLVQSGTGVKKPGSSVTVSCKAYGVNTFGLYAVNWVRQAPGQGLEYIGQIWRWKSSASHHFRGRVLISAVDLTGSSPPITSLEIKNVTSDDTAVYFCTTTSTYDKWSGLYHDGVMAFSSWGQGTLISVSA VL: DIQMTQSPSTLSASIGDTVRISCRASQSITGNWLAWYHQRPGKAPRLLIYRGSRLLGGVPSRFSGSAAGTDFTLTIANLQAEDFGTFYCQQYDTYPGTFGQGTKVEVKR

>  <unit annotation>
µg/mL

>  <reported relation>
>

>  <neutralization IC50>
15

$$$$
>  <binder>
γ52κ18 (antibody, V domains shown) VH: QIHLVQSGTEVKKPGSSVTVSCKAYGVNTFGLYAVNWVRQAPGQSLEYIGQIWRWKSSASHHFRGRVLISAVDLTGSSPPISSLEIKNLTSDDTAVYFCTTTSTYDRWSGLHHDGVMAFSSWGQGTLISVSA VL: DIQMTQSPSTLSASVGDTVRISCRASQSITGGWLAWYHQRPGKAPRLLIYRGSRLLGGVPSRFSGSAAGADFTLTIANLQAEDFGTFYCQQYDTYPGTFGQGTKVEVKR

>  <unit annotation>
µg/mL

>  <reported relation>
=

>  <neutralization IC50>
0.081

$$$$
